In this section, each of the molecules is paired with its reported growth.
test system: SNB-75 CNS; test: NCI-60 one-dose screen, 48 h (100 = growth as untreated, 0 = no growth, -100 = all killed); conditions: 10 µM unless noted
The panel holds about 83,000 compounds, 20% with a hit somewhere; the sample as a whole holds those more often.
observed.property: growth (%)

{"columns": ["molecule", "observed.property", "units.text", "observed.value"],
 "data": [
  ["C/C(=N/O)c1ccc(F)cc1", "growth", "%", 123],
  ["CCOC(=O)c1cc2c(=O)oc3ccccc3c2oc1=O", "growth", "%", 82.1],
  ["CC12CCC3c4ccccc4CCC3(CO1)C2 (stereo not drawn)", "growth", "%", 89.7],
  ["CC(=O)Nc1nc2ccc(NS(=O)(=O)c3cccc4c(N(C)C)cccc34)cc2[nH]1", "growth", "%", 31],
  ["COc1ccc(C2c3sc4c(F)cccc4c3Oc3nc[nH]c(=O)c32)cc1 (stereo not drawn)", "growth", "%", 88.2],
  ["CC(C)(C)c1cc(-c2nc3ccc(N4CCN(S(C)(=O)=O)CC4)cc3[nH]2)cc(C(C)(C)C)c1O", "growth", "%", 73.8],
  ["COC(=O)c1c2c(c(C)[n+]([O-])c1C)C(=O)C=C(NCc1ccc(OC)cc1)C2=O", "growth", "%", -97],
  ["Cc1ccc(Sc2nnc(/N=C3\\C(=O)Nc4ccccc43)s2)cc1", "growth", "%", 87.5],
  ["CCCCCCCCn1ccc2cc(NC(=O)CN3CCN(c4nc(C)cc(Cl)n4)CC3)ccc21", "growth", "%", 87],
  ["O=S(=O)(Nc1cc(Br)c(O)c2ccccc12)c1ccc(F)cc1", "growth", "%", 100],
  ["O=c1oc2ccc([N+](=O)[O-])cc2cc1Br", "growth", "%", 86.6],
  ["O=C(CI)NC1Oc2ccccc2-c2oc(=O)c(-c3ccccc3)cc21 (stereo not drawn)", "growth", "%", -20.9],
  ["COC(=O)c1c2c(c[n+]([O-])c1C)C(=O)C(NCc1ccccc1)=CC2=O", "growth", "%", -97.9]
]}

Taken from PubChem BioAssay (NCI).
